List of EC50 values.
Test system: Vaccinia virus
EXPERIMENT: Effective dose required for antiviral activity against Vaccinia virus
Type: functional
CONDITION_SET: Orthopoxvirus vaccinia; read-out: ED50 (the source's name)

SMILES_STRING	EC50
CCOC(=O)/C=C/c1cc(C(=O)c2ccc(-n3ccnc3)cc2)cn1C	> 500 µg/mL
Cn1cc(C(=O)c2ccccc2)cc1/C=C/C(=O)NO	> 30 µg/mL
Cn1cc(C(=O)c2ccccc2)cc1/C=C/C(=O)O	> 500 µg/mL
Nc1nc2c(ncn2COCCO)c(=O)[nH]1	> 110 µg/mL
